assay-name: NCI Yeast Anticancer Drug Screen. Data for the bub3 strain (AID 167)
test-context: S. cerevisiae bub3 mutant strain, at 100.0 µM, stronger effect = higher value
This is part of a sample that, as a whole, favours compounds with a hit. Of some 79,000 tested, about 15% had one in any assay.

- molecule: "NC1=NCC(c2ccc(Cl)cc2)O1 (stereo not given)"
  growth inhibition [%]: 49
- molecule: "CCCCN(CCCC)CC(C(C)=O)C(c1ccccc1)c1c(O)c2ccccc2oc1=O (stereo not given)"
  growth inhibition [%]: 6
- molecule: "Cn1cc(NC(=O)c2cc(NC(=O)CN=C(N)N)cn2C)cc1C(=O)NCCC(=N)N"
  growth inhibition [%]: 97
- molecule: "CCC1(OC(=O)CN)C(=O)OCc2c1cc1n(c2=O)Cc2cc3ccccc3nc2-1 (stereo not given)"
  growth inhibition [%]: 92
- molecule: "CCN(CCCl)c1cc(CN(C)C)cc(NC(=O)c2ccc(C(=O)Nc3cc(CN(C)C)cc(N(CC)CCCl)c3)cc2)c1"
  growth inhibition [%]: 75
- molecule: "CCOC(=O)C1=C(C(=O)OCC)C2(c3ccccc3)N(O1)c1ccccc1C2(C)C (stereo not given)"
  growth inhibition [%]: 77
- molecule: "CN(C)CCSC1=Nc2ccc(Cl)cc2C(c2ccccc2Cl)=NC1"
  growth inhibition [%]: 50
- molecule: "Cn1cnc(N)c1C(=N)[Se]"
  growth inhibition [%]: 94
- molecule: "Nc1nc(-c2ccccc2)c(-c2ccccc2)[se]1"
  growth inhibition [%]: 5
- molecule: "CC1CN=C(Nc2ccccc2)S1 (stereo not given)"
  growth inhibition [%]: -46
- molecule: "O=[N+]([O-])c1cc([As](Br)c2ccc(O)c([N+](=O)[O-])c2)ccc1O"
  growth inhibition [%]: 99
- molecule: "C=C[C@H]1CN2CC[C@H]1C[C@@H]2[C@@H](O)c1ccnc2ccccc12"
  growth inhibition [%]: 1
- molecule: "O=C1C=C(CN(CCCl)CCCl)C(=O)C=C1CN(CCCl)CCCl"
  growth inhibition [%]: -9
- molecule: "C/C(=N\\NC(N)=O)C(CN1CCOCC1)C(c1ccccc1)c1c(O)c2ccccc2oc1=O (stereo not given)"
  growth inhibition [%]: 1
- molecule: "O=[N+]([O-])c1ccc(N2CCC(CCCC3CCN(c4ccc([N+](=O)[O-])cc4[N+](=O)[O-])CC3)CC2)c([N+](=O)[O-])c1"
  growth inhibition [%]: -4
- molecule: "COc1cc(O)c2c(O)c3c(c4c2c1[C@]1(C4)C(C)=CCCC1(C)C)[C@H](O)[C@@]1(O)CC(=O)C(C(N)=O)=C(O)[C@@]1(O)C3=O"
  growth inhibition [%]: 94
- molecule: "CSC(=Nc1ccccc1)N(c1ccccc1)c1nc(=[N+](C)C)ss1"
  growth inhibition [%]: 99
- molecule: "C=CC[N+]12CN3CN(CN(C3)C1)C2"
  growth inhibition [%]: 94
- molecule: "O=C(O)CCCOc1cc(Cl)c(Cl)cc1Cl"
  growth inhibition [%]: 78
- molecule: "O=Cc1ccc(C(F)(F)F)cc1.[C-]#[O+].[C-]#[O+].[C-]#[O+].[Cr]"
  growth inhibition [%]: 31
- molecule: "Oc1cccc2nc3ccccc3nc12"
  growth inhibition [%]: 94
- molecule: "CO[C@H](/C(C)=C/C=C/C(C)=C/c1coc(C)n1)[C@H](C)[C@H]1C[C@@H](O)[C@@]2(C)O[C@H]2/C=C/[C@@H](C)[C@@H]2C[C@@H](CC(=O)O2)C[C@H]2O[C@@H]2C(=O)O1"
  growth inhibition [%]: 96
- molecule: "CCNC(=O)OCC1C2=C(C(=O)C(C)=C(N)C2=O)N2CC3C(N3C)C12OC (stereo not given)"
  growth inhibition [%]: 71
- molecule: "O=[N+]([O-])c1ccc(-n2nc3ccc4c(no[n+]4[O-])c3[n+]2[O-])c([N+](=O)[O-])c1"
  growth inhibition [%]: 9
- molecule: "OCC(O)C(O)CO (stereo not given) (tested in a mixture with another compound)"
  growth inhibition [%]: 3
